- PROTOCOL NOTES: Volume of distribution at steady state in castrated rat at 1 mg/kg, iv
- Assay type: ADME, organism-based
- Design: dose 1 mg/kg, route intravenous
- STATED CONDITIONS: male, in vivo, read-out: Vdss
ASSAY READOUT: Vd
# output: numeric value plus its unit

What the record says about `CC(C)(C)c1ccc(-c2nc3c(N4CCN(Cc5ccc6nccnc6c5)CC4)cccc3[nH]2)cc1` : Vd is 6.1 L/kg

###

- TARGET: Gonadotropin-releasing hormone receptor (Rattus norvegicus, UniProt P30969)
- PROTOCOL NOTES: Antagonist activity at rat recombinant GnRH receptor assessed as inhibition of [D-Trp6]-GnRH-stimulated LH release from rat pituitary cells
- Type: functional, cell-based, Pituitary gland cell
ASSAY READOUT: IC50
Include the unit right after the number.

Take a look at these entries with their results.
- CC(C)(C)c1ccc(-c2nc3c(N4CCN(Cc5ccc6[nH]c(=O)c(=O)n(Cc7cccnc7)c6c5)CC4)cccc3[nH]2)cc1: 69 nM
- Cn1c(=O)c(=O)[nH]c2ccc(CN3CCN(c4cccc5[nH]c(-c6ccc(C(C)(C)C)cc6)nc45)CC3)cc21: 44 nM
- CC(C)(C)c1ccc(-c2nc3c(N4CCN(Cc5cnc6[nH]c(=O)c(=O)[nH]c6c5)CC4)cccc3[nH]2)cc1: 240 nM
- CC(C)(C)c1ccc(-c2nc3c(N4CCN(Cc5cccc6nccnc56)CC4)cccc3[nH]2)cc1: 5900 nM
- CC(C)(C)c1ccc(-c2nc3c(N4CCN(Cc5ccc6cccnc6c5)CC4)cccc3[nH]2)cc1: 540 nM

// each compound listed below needs its IC50
1. CC(C)(C)c1ccc(-c2nc3c(N4CCN(Cc5ccc6c(c5)NCC(=O)N6)CC4)cccc3[nH]2)cc1
2. CC(C)(C)c1ccc(-c2nc3c(N4CCN(Cc5ccc6ncccc6c5)CC4)cccc3[nH]2)cc1
3. CC(C)(C)c1ccc(-c2nc3c(N4CCN(Cc5ccc6nccnc6c5)CC4)cccc3[nH]2)cc1

1. 120 nM
2. 830 nM
3. 350 nM

###

- PROTOCOL NOTES: Cmax in castrated rat at 20 mg/kg, po
- Format: ADME, organism-based
- Parameters: dose 20 mg/kg, route oral
- STATED CONDITIONS: male, in vivo
ASSAY READOUT: Cmax (µg/mL)
Answers are plain numbers, in µg/mL.

Sure, the documented Cmax for `CC(C)(C)c1ccc(-c2nc3c(N4CCN(Cc5ccc6nccnc6c5)CC4)cccc3[nH]2)cc1` is 1.33

###

- PROTOCOL NOTES: AUC (0 to infinity) in castrated rat at 20 mg/kg, po
- Assay type: ADME, organism-based
- Design: time infinity, dose 20 mg/kg, route oral
- STATED CONDITIONS: male, plasma
ASSAY READOUT: AUC(0-inf) (ng·h/mL)
Answers are plain numbers, in ng·h/mL.

Record `CC(C)(C)c1ccc(-c2nc3c(N4CCN(Cc5ccc6nccnc6c5)CC4)cccc3[nH]2)cc1` . Reported AUC(0-inf): 6640

###

- PROTOCOL NOTES: AUC (0 to infinity) in castrated rat at 1 mg/kg, iv
- Format: ADME, organism-based
- Parameters: time infinity, dose 1 mg/kg, route intravenous
- STATED CONDITIONS: male, plasma
ASSAY READOUT: AUC(0-inf) (ng·h/mL)
Answers are plain numbers, in ng·h/mL.

According to the records, this molecule `CC(C)(C)c1ccc(-c2nc3c(N4CCN(Cc5ccc6nccnc6c5)CC4)cccc3[nH]2)cc1` displays AUC(0-inf) of 447

###

- TARGET: UniProtKB P30968
- Sequence (P30968 whole entry): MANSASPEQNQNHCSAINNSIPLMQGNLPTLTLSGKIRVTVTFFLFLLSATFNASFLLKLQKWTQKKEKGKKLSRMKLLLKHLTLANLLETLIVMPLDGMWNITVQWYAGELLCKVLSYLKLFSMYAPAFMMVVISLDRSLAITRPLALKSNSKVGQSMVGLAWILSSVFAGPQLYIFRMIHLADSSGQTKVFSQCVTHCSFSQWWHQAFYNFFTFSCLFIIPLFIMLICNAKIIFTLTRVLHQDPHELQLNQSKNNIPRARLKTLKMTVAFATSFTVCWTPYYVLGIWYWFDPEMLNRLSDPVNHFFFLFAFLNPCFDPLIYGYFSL
- PROTOCOL NOTES: Displacement of [D-Trp6]-GnRH from human recombinant GnRH receptor
ASSAY READOUT: log10(IC50) (log10 of the value in nM)
Heads up, the numbers here are log10 of IC50 in nM units.

Please review the entries below; each comes with its answer.
* CC(C)(C)c1ccc(-c2nc3c(N4CCN(Cc5ccc6nccnc6c5)CC4)cccc3[nH]2)cc1 | 1.08
* CC(C)(C)c1ccc(-c2nc3c(N4CCN(Cc5cnc6[nH]c(=O)c(=O)[nH]c6c5)CC4)cccc3[nH]2)cc1 | 0.26
* CC(C)(C)c1ccc(-c2nc3c(N4CCN(Cc5cccc6nccnc56)CC4)cccc3[nH]2)cc1 | 1.41
* CC(C)(C)c1ccc(-c2nc3c(N4CCN(Cc5ccc6ncccc6c5)CC4)cccc3[nH]2)cc1 | 1.32
* CC(C)(C)c1ccc(-c2nc3c(N4CCN(Cc5ccc6[nH]c(=O)c(=O)n(Cc7cccnc7)c6c5)CC4)cccc3[nH]2)cc1 | 0.75

# return log10(IC50) for each item in the list
1. CC(C)(C)c1ccc(-c2nc3c(N4CCN(Cc5ccc6cccnc6c5)CC4)cccc3[nH]2)cc1
2. CC(C)(C)c1ccc(-c2nc3c(N4CCN(Cc5ccc6c(c5)NCC(=O)N6)CC4)cccc3[nH]2)cc1

[1.38, 1.20]

Measured log10(IC50), `Cn1c(=O)c(=O)[nH]c2ccc(CN3CCN(c4cccc5[nH]c(-c6ccc(C(C)(C)C)cc6)nc45)CC3)cc21` : 0.54

###

For each entry below, report its pIC50 value.
- TARGET: Gonadotropin-releasing hormone receptor (Rattus norvegicus)
- Sequence (P30969 whole entry): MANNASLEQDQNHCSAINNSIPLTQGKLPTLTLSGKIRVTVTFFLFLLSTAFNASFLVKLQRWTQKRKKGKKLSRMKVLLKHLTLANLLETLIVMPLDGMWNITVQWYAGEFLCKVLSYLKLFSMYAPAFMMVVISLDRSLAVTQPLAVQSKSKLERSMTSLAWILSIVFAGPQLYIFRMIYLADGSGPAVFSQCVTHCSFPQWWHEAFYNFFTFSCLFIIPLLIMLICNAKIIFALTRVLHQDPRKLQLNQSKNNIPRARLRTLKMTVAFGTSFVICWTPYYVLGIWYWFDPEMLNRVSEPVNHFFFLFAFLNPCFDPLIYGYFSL
- PROTOCOL NOTES: Displacement of [D-Trp6]-GnRH from rat recombinant GnRH receptor
Give bare numbers, as −log10 of the molar value.

- CC(C)(C)c1ccc(-c2nc3c(N4CCN(Cc5ccc6[nH]c(=O)c(=O)n(Cc7cccnc7)c6c5)CC4)cccc3[nH]2)cc1: 7.33
- CC(C)(C)c1ccc(-c2nc3c(N4CCN(Cc5ccc6c(c5)NCC(=O)N6)CC4)cccc3[nH]2)cc1: 7.06
- Cn1c(=O)c(=O)[nH]c2ccc(CN3CCN(c4cccc5[nH]c(-c6ccc(C(C)(C)C)cc6)nc45)CC3)cc21: 7.77
- CC(C)(C)c1ccc(-c2nc3c(N4CCN(Cc5cnc6[nH]c(=O)c(=O)[nH]c6c5)CC4)cccc3[nH]2)cc1: 7.48

Query compound follows.
For reference, reported pIC50 for `CC(C)(C)c1ccc(-c2nc3c(N4CCN(Cc5ccc6nccnc6c5)CC4)cccc3[nH]2)cc1` stands at 7.15

###

- PROTOCOL NOTES: Permeability across artificial membrane
- Format: ADME
- STATED CONDITIONS: PAMPA; read-out: permeability
ASSAY READOUT: Papp (×10⁻⁶ cm/s)
Answers are plain numbers, in ×10⁻⁶ cm/s.

* CC(C)(C)c1ccc(-c2nc3c(N4CCN(Cc5ccc6nccnc6c5)CC4)cccc3[nH]2)cc1 | 0.23

Batch lookup, Papp per entry.
1. CC(C)(C)c1ccc(-c2nc3c(N4CCN(Cc5ccc6ncccc6c5)CC4)cccc3[nH]2)cc1
2. CC(C)(C)c1ccc(-c2nc3c(N4CCN(Cc5ccc6c(c5)NCC(=O)N6)CC4)cccc3[nH]2)cc1
3. CC(C)(C)c1ccc(-c2nc3c(N4CCN(Cc5ccc6[nH]c(=O)c(=O)n(Cc7cccnc7)c6c5)CC4)cccc3[nH]2)cc1
4. CC(C)(C)c1ccc(-c2nc3c(N4CCN(Cc5ccc6cccnc6c5)CC4)cccc3[nH]2)cc1

[0.4, 0.05, 0.05, 1.5]

###

- TARGET: Gonadotropin-releasing hormone receptor (Homo sapiens, UniProt P30968)
- PROTOCOL NOTES: Antagonist activity at human GnRH receptor assessed as inhibition of [D-Trp6]-GnRH-stimulated [3H]IP […]
- Format: functional
Each record is given rule met if its reported IC50 is strictly below 30 nM. Records at or above 30 nM are given rule not met.

- CC(C)(C)c1ccc(-c2nc3c(N4CCN(Cc5cnc6[nH]c(=O)c(=O)[nH]c6c5)CC4)cccc3[nH]2)cc1: rule met
- CC(C)(C)c1ccc(-c2nc3c(N4CCN(Cc5ccc6[nH]c(=O)c(=O)n(Cc7cccnc7)c6c5)CC4)cccc3[nH]2)cc1: rule met
- Cn1c(=O)c(=O)[nH]c2ccc(CN3CCN(c4cccc5[nH]c(-c6ccc(C(C)(C)C)cc6)nc45)CC3)cc21: rule met

# strict comparison: is reported IC50 < 30 nM? input = `CC(C)(C)c1ccc(-c2nc3c(N4CCN(Cc5ccc6cccnc6c5)CC4)cccc3[nH]2)cc1` rule not met

Hello, I'm reviewing records and need to know if IC50 of `CC(C)(C)c1ccc(-c2nc3c(N4CCN(Cc5cccc6nccnc56)CC4)cccc3[nH]2)cc1` is below 30 nM. Could you check? rule not met

Bench note: check whether `CC(C)(C)c1ccc(-c2nc3c(N4CCN(Cc5ccc6c(c5)NCC(=O)N6)CC4)cccc3[nH]2)cc1` shows IC50 below 30 nM rule met

Decide: IC50 of `CC(C)(C)c1ccc(-c2nc3c(N4CCN(Cc5ccc6ncccc6c5)CC4)cccc3[nH]2)cc1` strictly below 30 nM? rule not met

State whether 30 nM exceeds IC50 recorded for `CC(C)(C)c1ccc(-c2nc3c(N4CCN(Cc5ccc6nccnc6c5)CC4)cccc3[nH]2)cc1` . rule met
